Kindly state melting point for each of the entries shown.

Your task in this section: give melting point for each listed record.
1. O=C(O)C1CN(Cc2ccc3c(c2)Nc2nccnc2S3)C1
2. CS(=O)(=O)/N=C/NC1CCN(Cc2ccc3c(c2)Nc2nccnc2S3)CC1
3. NS(=O)(=O)NCCc1cn(Cc2ccc3c(c2)Nc2nccnc2S3)cn1
4. O=C1CC2(CCN(Cc3ccc4c(c3)Nc3nccnc3S4)CC2)CO1

181 to 183 °C
119 to 122 °C
187 to 189 °C
180 to 182 °C

====

Kindly state melting point for each of the entries shown.

{"Compound": "COCN1c2ccccc2Nc2nccnc21", "melting point": "185 to 188 °C"}

Your task in this section: give melting point for each listed record.
1. O=C(O)CN1c2ccccc2Nc2nccnc21
2. O=S(=O)(c1ccccc1)N(Cc1ccc2c(c1)Nc1nccnc1S2)c1cccnc1
3. CS(=O)(=O)NCCC1CCN(Cc2ccc3c(c2)Nc2nccnc2S3)CC1
4. c1cnc2c(n1)Nc1cc(Cn3cnnn3)ccc1S2

1: 210 to 212 °C; 2: 205 to 260 °C; 3: 168 to 170 °C; 4: 210 to 212 °C

====

Observable: melting point

Recorded melting point, per entry:
{"Molecule": "c1cnn(Cc2ccc3c(c2)Nc2nccnc2S3)c1", "Observable": "melting point", "Experimental Result": "211 to 212 °C"}
{"Molecule": "CCc1ncnc2c1ncn2Cc1ccc2c(c1)Nc1nccnc1S2", "Observable": "melting point", "Experimental Result": "215 to 217 °C"}
{"Molecule": "CS(=O)(=O)NCC1=CCCN(Cc2ccc3c(c2)Nc2nccnc2S3)C1", "Observable": "melting point", "Experimental Result": "110 to 112 °C"}
{"Molecule": "O=c1ccn(Cc2ccc3c(c2)Nc2nccnc2S3)cc1", "Observable": "melting point", "Experimental Result": "> 275 °C"}
{"Molecule": "c1cnc2c(n1)Nc1cc(CN3CCCCCC3)ccc1S2", "Observable": "melting point", "Experimental Result": "161 to 163 °C"}
{"Molecule": "CON=C1CCN(Cc2ccc3c(c2)Nc2nccnc2S3)CC1", "Observable": "melting point", "Experimental Result": "142 to 143 °C"}

Your task in this section: give melting point for each listed record.
1. OC1C2CCCC1CN(Cc1ccc3c(c1)Nc1nccnc1S3)C2 (stereo not drawn) [Example 127]
2. CN(C)C(Cc1ccc2c(c1)Nc1nccnc1S2)=NC#N
3. CN(C)C(=O)C#Cc1ccc2c(c1)Nc1nccnc1N2C

1: 189 to 192 °C; 2: 247 to 249 °C (dec.); 3: 203 to 205 °C
